system: PC-3 (Prostate Carcinoma); assay: Bliss excess, mean over the matrix (fraction); higher = more synergy
# cutoff -0.01 applies to Bliss excess; >= gives Yes, < gives No

molecule	test target	answer label
Cc1cc2ncnn2cc1Nc1ncc2c(n1)n(C1CCOCC1)c(=O)n2C [AZD7648] + C=CCn1c(=O)c2cnc(Nc3ccc(N4CCN(C)CC4)cc3)nc2n1-c1cccc(C(C)(C)O)n1 [AZD1775] (first compound max 10 µM, partner max 1 µM)	PC-3 (Prostate Carcinoma)	No
COc1nnc2ccc(N3CCC(c4ccc(OCCN5CCN(C)C(=O)[C@H]5C)cc4)CC3)nn12 [AZD5153] + C=CCn1c(=O)c2cnc(Nc3ccc(N4CCN(C)CC4)cc3)nc2n1-c1cccc(C(C)(C)O)n1 [AZD1775] (first compound max 1 µM, partner max 1 µM)	PC-3 (Prostate Carcinoma)	No
COc1nnc2ccc(N3CCC(c4ccc(OCCN5CCN(C)C(=O)[C@H]5C)cc4)CC3)nn12 [AZD5153] + CCN(CCO)CCCOc1ccc2c(Nc3cc(CC(=O)Nc4cccc(F)c4)[nH]n3)ncnc2c1 [AZD2811] (first compound max 1 µM, 7x7, partner max 1 µM)	PC-3 (Prostate Carcinoma)	No

Please turn your attention to the following entry.
Ask: Say whether CN(CCO)CC[C@H](CSc1ccccc1)Nc1ccc(S(=O)(=O)NC(=O)c2ccc(N3CCC([C@@H](O)c4ccccc4-c4ccc(Cl)cc4)CC3)cc2)cc1S(=O)(=O)C(F)(F)F [AZD4320] + C1CN(CCC1(C(=O)N[C@@H](CCO)C2=CC=C(C=C2)Cl)N)C3=NC=NC4=C3C=CN4 [Capivasertib] (first compound max 1 µM, 7x7, partner max 3 µM) shows Bliss excess of -0.01 or more.
Reply: No

---

test system: JHH-4 (Hepatocellular Carcinoma); experiment: combination Emax (second highest fraction inhibited in the dose matrix, 72 h); higher = more inhibition; extreme values may be limits of the assay
quantity kind: combination Emax
Write the value as a bare number.

compound	combination Emax
CC(=O)c1c(C)c2cnc(Nc3ccc(N4CCNCC4)cn3)nc2n(C2CCCC2)c1=O [Palbociclib] + CC1(C)CCC(CN2CCN(c3ccc(C(=O)NS(=O)(=O)c4ccc(NCC5CCOCC5)c([N+](=O)[O-])c4)c(Oc4cnc5[nH]ccc5c4)c3)CC2)=C(c2ccc(Cl)cc2)C1 [Venetoclax] (first compound max 10 µM, 7x7, partner max 1 µM)	0.328

Now take the following compound into account.
Ask: What does the data say about its combination Emax? Entry: COc1cccc(OCCCN)c1-c1cc(Nc2cnc(C#N)cn2)n[nH]1 [Prexasertib] + Cc1cc2ncnn2cc1Nc1ncc2c(n1)n(C1CCOCC1)c(=O)n2C [AZD7648] (first compound max 1 µM, 7x7, partner max 10 µM)
Reply: 0.62

---

system: PC-3 (Prostate Carcinoma); test: combination Emax (second highest fraction inhibited in the dose matrix, 72 h); higher = more inhibition; extreme values may be limits of the assay
quantity kind: combination Emax
Write the value as a bare number.

molecule	combination Emax
CN(C)CCCOc1ccc(-c2ccc3ncc4c(c3c2)n(C2CCOCC2)c(=O)n4C)cn1 [AZD0156] + C=CCn1c(=O)c2cnc(Nc3ccc(N4CCN(C)CC4)cc3)nc2n1-c1cccc(C(C)(C)O)n1 [AZD1775] (first compound max 1 µM, partner max 1 µM)	0.224
CC1(C)CCC(CN2CCN(c3ccc(C(=O)NS(=O)(=O)c4ccc(NCC5CCOCC5)c([N+](=O)[O-])c4)c(Oc4cnc5[nH]ccc5c4)c3)CC2)=C(c2ccc(Cl)cc2)C1 [Venetoclax] + COc1cc(Nc2ncc3c(n2)-c2ccc(Cl)cc2C(c2c(F)cccc2OC)=NC3)ccc1C(=O)O [Alisertib] (first compound max 1 µM, 7x7, partner max 10 µM)	0.321

Now take the following molecule into account.
Ask: What does the data say about its combination Emax? Entry: Cc1c2c(nn1C)CSCc1cc(n(C)n1)CSc1cc(c3ccccc3c1)OCCCc1c(C(=O)O)n(C)c3c-2c(Cl)ccc13 [AZD5991] + CN(C)CCCOc1ccc(-c2ccc3ncc4c(c3c2)n(C2CCOCC2)c(=O)n4C)cn1 [AZD0156] (first compound max 1 µM, 7x7, partner max 1 µM)
Reply: 0.282
